# System: MS2 coat protein
# experimental_details: apparent KD of MS2 coat protein; designed switch direction (-1 OFF switch, 1 ON switch): -1; higher = weaker reporter binding
# test_parameters: input ligand: none
Label scheme for apparent KD of MS2 coat protein: lower than 50 nM is 0.0, 50 nM and above is 1.0.

Does the reported apparent KD of MS2 coat protein for AAUCCACAUGAGGAUCACCCAUGUUAGGAUAUCGCGGAGAUCGACUGCGGAAGUUCUGCGAGAAGGAGCGUGAU [Eternabot (L2) Solution 18] (Eterna round: R97, puzzle: Exclusion 1) fall at or above the 50 nM mark? 0.0

// repeat for GCAAGCUUUAUCACUAUGAACAUGAGGAUCACCCAUGUAUAAGGUAUUACUUUUGGGCCCUUUAGUGCUCGUCUUAU [JR_STOV1_Sub032] (Eterna round: R97, puzzle: Sensor, turn-off variant 1) and report 0.0

Also need ACUAAACAUGUAGGAUAUGCGUGGCGAAGCUAUGCAGAAGGACAUGAGGAUCACCCAUGUUUUAGCGUCUGCGUACAGAUGCGU [JL ENG1 1.44] (Eterna round: R96, puzzle: Exclusion NG 1) , thanks. 0.0

Subsequent entry: CCGGUUGGCGCAGGAUAUACAUGAGGAUCACCCAUGUUCAUGAGGAUCACCUAUGAGUUUUUGUUGUAGAAGGGUGGCCCGGCC (Eterna round: R96, puzzle: Exclusion NG 2) 1.0

Please answer likewise for AUAAAACAUGAGGAUCACCCAUGUCAGGAUAUACGAUUCCACCCUAACUGCGUGGAACGUAGAAGGGACAUAGG [Exclusion 1 (MOD6 Esqu)] (Eterna round: R97, puzzle: Exclusion 1) 1.0

Numbers sourced from the supplement of paper PMC9170038.
